Reference source: PubChem BioAssay AID1919017

Test system: SW1271 complex spheroids with HUVEC/MSC, growth, % test/control
assay overview: Anticancer human tumor SW1271 cell line growth inhibition [AhR];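 further: spheroids exposed to agents for 7 days before readout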
stated conditions: second compound 10 µM; first compound 0.1 µM; active compounds read low
value kind: viability, T/C (%)
Give the quantity in %, number only.

Challenge: viability, T/C lookup needed for CC1COCCN1c1cc(-c2ccnn2C)c2ccnc(-c3ccn[nH]3)c2n1 (centres undefined) + CC(CO)NC(=O)c1cc(-c2ccc(Cl)cc2)nn(-c2cnn(C)c2)c1=O , thanks.
Response given: 66.6

Challenge: viability, T/C lookup needed for O=C(c1cc(Cc2n[nH]c(=O)c3ccccc23)ccc1F)N1CCN(C(=O)C2CC2)CC1 + Cc1ccccc1N=Nc1ccc(NC(=O)c2ccnn2C)c(C)c1 , thanks.
Response given: 107

Challenge: viability, T/C lookup needed for O=C(C=Cc1cccc(S(=O)(=O)Nc2ccccc2)c1)NO + CC(CO)NC(=O)c1cc(-c2ccc(Cl)cc2)nn(-c2cnn(C)c2)c1=O , thanks.
Response given: 76.2

Challenge: viability, T/C lookup needed for COc1cc(Nc2ncc3c(n2)-c2ccc(Cl)cc2C(c2c(F)cccc2OC)=NC3)ccc1C(=O)O + CC(CO)NC(=O)c1cc(-c2ccc(Cl)cc2)nn(-c2cnn(C)c2)c1=O , thanks.
Response given: 58.7

---

Recorded measurements of viability, T/C, one per entry
Tested on: SW1271 complex spheroids with HUVEC/MSC, growth, % test/control
assay overview: Anticancer human tumor SW1271 cell line growth inhibition [AhR];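 further: spheroids exposed to agents for 7 days before readout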
stated conditions: second compound 10 µM; first compound 0.1 µM; active compounds read low
Give the quantity in %, number only.

// below: answered molecules
>>> recorded_result("COc1ccc([C@@H](O)c2cc(-c3ncnc4cc(N5CCOCC5)ccc34)c(F)cc2Cl)nn1 + CC(CO)NC(=O)c1cc(-c2ccc(Cl)cc2)nn(-c2cnn(C)c2)c1=O")
76.9
>>> recorded_result("CC1COCCN1c1cc(C2(S(C)(=N)=O)CC2)nc(-c2ccnc3[nH]ccc23)n1 (stereo not drawn) + Cc1cncc(-c2nc(NCCc3c[nH]c4ccccc34)c3ncn(C(C)C)c3n2)c1")
46.9
>>> recorded_result("CC1COCCN1c1cc(C2(S(C)(=N)=O)CC2)nc(-c2ccnc3[nH]ccc23)n1 (stereo not drawn) + Cc1ccccc1N=Nc1ccc(NC(=O)c2ccnn2C)c(C)c1")
91.8

Challenge: viability, T/C lookup needed for CC[C@@]1(O)C(=O)OCc2c1cc1n(c2=O)Cc2cc3c(CN(C)C)c(O)ccc3nc2-1 + Cc1cncc(-c2nc(NCCc3c[nH]c4ccccc34)c3ncn(C(C)C)c3n2)c1 , thanks.
Response given: 37.1

Challenge: viability, T/C lookup needed for CC1COCCN1c1cc(-c2ccnn2C)c2ccnc(-c3ccn[nH]3)c2n1 (stereo not drawn) + Cc1cncc(-c2nc(NCCc3c[nH]c4ccccc34)c3ncn(C(C)C)c3n2)c1 , thanks.
Response given: 36.2

Challenge: viability, T/C lookup needed for CC[C@@]1(O)C(=O)OCc2c1cc1n(c2=O)Cc2cc3c(CN(C)C)c(O)ccc3nc2-1 + Cc1ccccc1N=Nc1ccc(NC(=O)c2ccnn2C)c(C)c1 , thanks.
Response given: 65.5

Challenge: viability, T/C lookup needed for COc1ccc([C@@H](O)c2cc(-c3ncnc4cc(N5CCOCC5)ccc34)c(F)cc2Cl)nn1 + Cc1cncc(-c2nc(NCCc3c[nH]c4ccccc34)c3ncn(C(C)C)c3n2)c1 , thanks.
Response given: 43.3

Challenge: viability, T/C lookup needed for CC1(C)CCC(CN2CCN(c3ccc(C(=O)NS(=O)(=O)c4ccc(NCC5CCOCC5)c([N+](=O)[O-])c4)c(Oc4cnc5[nH]ccc5c4)c3)CC2)=C(c2ccc(Cl)cc2)C1 + Cc1cncc(-c2nc(NCCc3c[nH]c4ccccc34)c3ncn(C(C)C)c3n2)c1 , thanks.
Response given: 46

---

Recorded measurements of viability, T/C, one per entry
Test system: SW1271 complex spheroids with HUVEC/MSC, growth, % test/control
assay overview: Anticancer human tumor SW1271 cell line growth inhibition [AhR];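 further: spheroids exposed to agents for 7 days before readout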
stated conditions: second compound 1 µM; first compound 0.0316 µM; active compounds read low
Give the quantity in %, number only.

// below: answered compounds
>>> recorded_result("Cn1ncnc1C1c2n[nH]c(=O)c3cc(F)cc(c23)NC1c1ccc(F)cc1 (configuration not stated) + CC(CO)NC(=O)c1cc(-c2ccc(Cl)cc2)nn(-c2cnn(C)c2)c1=O")
74.1
>>> recorded_result("O=C(C=Cc1cccc(S(=O)(=O)Nc2ccccc2)c1)NO + Cc1cncc(-c2nc(NCCc3c[nH]c4ccccc34)c3ncn(C(C)C)c3n2)c1")
97.4
>>> recorded_result("COc1cc(C2c3cc4c(cc3C(OC3OC5COC(C)OC5C(O)C3O)C3COC(=O)C23)OCO4)cc(OC)c1O (configuration not stated) + Cc1ccccc1N=Nc1ccc(NC(=O)c2ccnn2C)c(C)c1")
88.8
>>> recorded_result("CC1(C)CCC(CN2CCN(c3ccc(C(=O)NS(=O)(=O)c4ccc(NCC5CCOCC5)c([N+](=O)[O-])c4)c(Oc4cnc5[nH]ccc5c4)c3)CC2)=C(c2ccc(Cl)cc2)C1 + Cc1ccccc1N=Nc1ccc(NC(=O)c2ccnn2C)c(C)c1")
110
>>> recorded_result("Nc1ccn(C2OC(CO)C(O)C2(F)F)c(=O)n1 (configuration not stated) + CC(CO)NC(=O)c1cc(-c2ccc(Cl)cc2)nn(-c2cnn(C)c2)c1=O")
53.1
>>> recorded_result("O=C(C=Cc1cccc(S(=O)(=O)Nc2ccccc2)c1)NO + Cc1ccccc1N=Nc1ccc(NC(=O)c2ccnn2C)c(C)c1")
105

Okay, now this compound:
Challenge: viability, T/C lookup needed for CC(C)c1c(-c2ccccc2)nc2c(C#N)c[nH]n2c1=O + Cc1cncc(-c2nc(NCCc3c[nH]c4ccccc34)c3ncn(C(C)C)c3n2)c1 , thanks.
Response given: 89.5

---

Recorded measurements of viability, T/C, one per entry
System: SW1271 complex spheroids with HUVEC/MSC, growth, % test/control
assay overview: Anticancer human tumor SW1271 cell line growth inhibition [AhR];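 further: spheroids exposed to agents for 7 days before readout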
stated conditions: second compound 0.316 µM; first compound 10 µM; active compounds read low
Give the quantity in %, number only.

>>> recorded_result("COc1cc(C2c3cc4c(cc3C(OC3OC5COC(C)OC5C(O)C3O)C3COC(=O)C23)OCO4)cc(OC)c1O (stereo unspecified) + Cc1ccccc1N=Nc1ccc(NC(=O)c2ccnn2C)c(C)c1")
44.7
>>> recorded_result("COc1ccc([C@@H](O)c2cc(-c3ncnc4cc(N5CCOCC5)ccc34)c(F)cc2Cl)nn1 + CC(CO)NC(=O)c1cc(-c2ccc(Cl)cc2)nn(-c2cnn(C)c2)c1=O")
33.2
>>> recorded_result("NS(=O)(=O)OCC1CC(n2ccc3c(NC4CCc5ccccc54)ncnc32)CC1O (stereo unspecified) + CC(CO)NC(=O)c1cc(-c2ccc(Cl)cc2)nn(-c2cnn(C)c2)c1=O")
49.7
>>> recorded_result("O=C(c1cc(Cc2n[nH]c(=O)c3ccccc23)ccc1F)N1CCN(C(=O)C2CC2)CC1 + CC(CO)NC(=O)c1cc(-c2ccc(Cl)cc2)nn(-c2cnn(C)c2)c1=O")
75.8
>>> recorded_result("COc1cccc2c1C(=O)c1c(O)c3c(c(O)c1C2=O)CC(O)(C(=O)CO)CC3OC1CC(N)C(O)C(C)O1 (stereo unspecified) + Cc1ccccc1N=Nc1ccc(NC(=O)c2ccnn2C)c(C)c1")
3.51
>>> recorded_result("COc1cc(C2c3cc4c(cc3C(OC3OC5COC(C)OC5C(O)C3O)C3COC(=O)C23)OCO4)cc(OC)c1O (stereo unspecified) + Cc1cncc(-c2nc(NCCc3c[nH]c4ccccc34)c3ncn(C(C)C)c3n2)c1")
53.4
>>> recorded_result("COc1cc(Nc2ncc3c(n2)-c2ccc(Cl)cc2C(c2c(F)cccc2OC)=NC3)ccc1C(=O)O + CC(CO)NC(=O)c1cc(-c2ccc(Cl)cc2)nn(-c2cnn(C)c2)c1=O")
44.5
>>> recorded_result("Nc1ccn(C2OC(CO)C(O)C2(F)F)c(=O)n1 (stereo unspecified) + Cc1ccccc1N=Nc1ccc(NC(=O)c2ccnn2C)c(C)c1")
45.1
>>> recorded_result("CC1COCCN1c1cc(C2(S(C)(=N)=O)CC2)nc(-c2ccnc3[nH]ccc23)n1 (stereo unspecified) + CC(CO)NC(=O)c1cc(-c2ccc(Cl)cc2)nn(-c2cnn(C)c2)c1=O")
50.9
>>> recorded_result("COc1cc(Nc2ncc3c(n2)-c2ccc(Cl)cc2C(c2c(F)cccc2OC)=NC3)ccc1C(=O)O + Cc1ccccc1N=Nc1ccc(NC(=O)c2ccnn2C)c(C)c1")
53.2

Challenge: viability, T/C lookup needed for CC(C)c1c(-c2ccccc2)nc2c(C#N)c[nH]n2c1=O + Cc1ccccc1N=Nc1ccc(NC(=O)c2ccnn2C)c(C)c1 , thanks.
Response given: 77.3

Challenge: viability, T/C lookup needed for Nc1ccn(C2OC(CO)C(O)C2(F)F)c(=O)n1 (stereo unspecified) + Cc1cncc(-c2nc(NCCc3c[nH]c4ccccc34)c3ncn(C(C)C)c3n2)c1 , thanks.
Response given: 56.8
